PROCEDURE_DETAILS: Binding affinity to amyloid beta oligomer (unknown origin) assessed as dissociation constant
Parameters: species or system Homo sapiens
ENDPOINT_LABEL: Kd (nM)
Note: unit nM is implicit; provide only the numeric part.

The compound CN(C)c1ccc(/C=C/c2ccc3cc(C#N)c(=O)oc3c2)cc1 showed Kd equal to 81.5

###

Items are presented alongside their recorded Kd.
STUDY_TARGET: Amyloid-beta precursor protein (Homo sapiens, UniProt P05067)
Sequence (P05067 whole entry): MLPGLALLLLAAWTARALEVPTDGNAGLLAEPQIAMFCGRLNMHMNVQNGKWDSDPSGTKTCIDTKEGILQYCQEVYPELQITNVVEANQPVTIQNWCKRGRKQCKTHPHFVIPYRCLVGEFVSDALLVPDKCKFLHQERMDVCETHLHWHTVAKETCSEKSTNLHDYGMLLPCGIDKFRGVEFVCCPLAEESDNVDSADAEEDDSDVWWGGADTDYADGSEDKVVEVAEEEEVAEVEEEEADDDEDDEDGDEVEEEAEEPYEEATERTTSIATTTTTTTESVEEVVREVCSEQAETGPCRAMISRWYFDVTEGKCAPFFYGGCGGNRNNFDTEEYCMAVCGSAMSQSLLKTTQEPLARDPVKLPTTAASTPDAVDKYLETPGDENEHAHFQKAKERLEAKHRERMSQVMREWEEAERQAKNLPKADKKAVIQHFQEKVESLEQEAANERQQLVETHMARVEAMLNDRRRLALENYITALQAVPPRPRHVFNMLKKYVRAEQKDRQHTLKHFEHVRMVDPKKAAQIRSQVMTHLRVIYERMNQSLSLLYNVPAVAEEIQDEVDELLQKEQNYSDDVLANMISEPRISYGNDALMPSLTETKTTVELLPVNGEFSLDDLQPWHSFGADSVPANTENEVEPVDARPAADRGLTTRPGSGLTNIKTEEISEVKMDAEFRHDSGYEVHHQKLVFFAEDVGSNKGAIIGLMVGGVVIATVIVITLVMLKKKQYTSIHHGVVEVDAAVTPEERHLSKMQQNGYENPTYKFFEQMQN
PROCEDURE_DETAILS: Binding affinity to amyloid beta (unknown origin) assessed as dissociation constant
Answer with the value and then the unit.

Here is how some compounds turned out for Kd.
CN(C)c1ccc2cc3c(cc2c1)OCC(C=C(C#N)C#N)=C3 ... 0.0448 µM
CN(C)c1ccc(-c2ccc3cc(C#N)c(=N)oc3c2)cc1 ... 0.548 µM
COCCOCCOC(=O)CCN1C(=O)/C(=C/c2ccc3c(c2)Sc2ccccc2N3C)SC1=S ... 0.0282 µM

The compound CN(C)c1ccc(/C=C/C=C/C=C(C#N)C#N)s1 showed Kd equal to 0.117 µM

The compound CN(C)c1ccc2cc(/C=C/c3ccc4ccccc4[n+]3C)c(=O)oc2c1 showed Kd equal to 0.086 µM

The compound CN(C)c1ccc(-c2ccc(/C=C/C3CC(=C(C#N)C#N)c4ccccc4N3CCCS(=O)(=O)O)s2)cc1 (configuration not stated) showed Kd equal to 0.17 µM

The compound COCCOCCn1c2ccccc2c2cc(CCc3cc[n+](C)c4ccccc34)ccc21 showed Kd equal to 0.0131 µM

###

PROCEDURE_DETAILS: Binding affinity to amyloid beta fibril (unknown origin) assessed as dissociation constant
Design: species or system Homo sapiens
ENDPOINT_LABEL: pKd
pKd (log units): -log10 of the concentration in mol/L.

The compound CN(C)c1ccc(/C=C/c2ccc3cc(C#N)c(=O)oc3c2)cc1 showed pKd equal to 7.18

###

STUDY_TARGET: Amyloid-beta precursor protein (Homo sapiens)
PROCEDURE_DETAILS: Binding affinity to amyloid beta plaques 1 to 42 (unknown origin) assessed as dissociation constant
Items are presented alongside their recorded Kd.
Note: unit nM is implicit; provide only the numeric part.

Here is how some compounds turned out for Kd.
Cc1cc(/C=C/c2ccc(N(C)C)s2)n2c1C(CCCN1CCNc3ccccc31)=C1C=CC=[N+]1[B-]2(F)F ... 27
CCCN1/C(=C/C=C2\CCCC(C=C(C#N)C#N)=C2Cl)C(C)(C)c2ccccc21 ... 59.1
CCN(CC)c1ccc(/C=C/C2=[O+][B-](F)(F)OC(/C=C/c3ccc(N(CC)CC)nc3)=C2CCCOc2c(C)cccc2C)cc1 ... 506

Now consider the entry below.
The compound CN(C)c1ccc(/C=C/C=C(C#N)/C=C/C(C#N)=C/C=C/C=C/c2ccc(N(C)C)cc2)cc1 showed Kd equal to 1.04
